Let's look at some compounds and their measured GI50.
# Test system: K562
# measurement_description: Growth inhibition of human K562 cells incubated for 48 hrs by sulforhodamine B assay
# Assay type: functional
Answer in nM, number only, no unit symbol.

Some solved entries appear below for comparison.
COc1cc2nc(-c3ccc(C(F)(F)F)cc3)cc(OCCCN3CCCCC3)c2cc1OC | 578
COc1cc2nc(-c3ccc(Cl)cc3)cc(OCCCN3CCCCC3)c2cc1OC | 1220
COc1cc2nc(-c3ccc(Cl)cc3)cc(OCCCN3CCC(O)CC3)c2cc1OC | 1630
COc1cc2nc(-c3ccc(Cl)cc3)cc(OCCCN3CCOCC3)c2cc1OC | 2710
COc1cc2nc(-c3ccc(C(F)(F)F)cc3)cc(OCCCN3CCCC3)c2cc1OC | 475

Query :: Please give the documented GI50 of `COc1cc2nc(-c3ccc(Cl)cc3)cc(OCCCN3CCCC3)c2cc1OC`
Result :: 1060

Query :: Please give the documented GI50 of `COc1cc2nc(-c3ccc(C(F)(F)F)cc3)cc(OCCCN3CCC(O)CC3)c2cc1OC`
Result :: 1790

Query :: Please give the documented GI50 of `COc1cc2nc(-c3ccc(C(F)(F)F)cc3)cc(OCCCN3CCOCC3)c2cc1OC`
Result :: 1180

Provenance of the data: ChEMBL document CHEMBL4732237
